# Test system: RAW-Dual (murine macrophage reporter line)
# protocol notes: IRF reporter (Lucia luciferase) activity fold change vs agonist alone; higher = enhanced IRF activity
# applied conditions: modulator concentration 10 µM; agonist: LPS 0.1 ug/mL
Rule: IRF reporter under 1 gives False, otherwise True.

Illustrative cases are given below, each with its answer.
O=C(Cc1ccc(F)cc1)NCC1CCCN1c1ccccc1 (stereo not given) ... True
COc1ccc(C=CC(=O)O)cc1OC ... False
CCS(=O)(=O)N1CCC2(CC1)NC(=O)N(CCOc1ccccc1)C2=O ... True

API: the following record is the query input.
Exam item: Check if IRF reporter >= 1 (inclusive). Item: `CCN(CC)c1ccc(C=NNc2cc(N3CCOCC3)nc(N3CCOCC3)n2)cc1`
Marked response: True
